Value source: patent US12180207B2

# Target or test system: HEK-293 cells transfected with dox-inducible human wild type FGFR3 (Homo sapiens (Human))
# Sequence (P22607 23-806): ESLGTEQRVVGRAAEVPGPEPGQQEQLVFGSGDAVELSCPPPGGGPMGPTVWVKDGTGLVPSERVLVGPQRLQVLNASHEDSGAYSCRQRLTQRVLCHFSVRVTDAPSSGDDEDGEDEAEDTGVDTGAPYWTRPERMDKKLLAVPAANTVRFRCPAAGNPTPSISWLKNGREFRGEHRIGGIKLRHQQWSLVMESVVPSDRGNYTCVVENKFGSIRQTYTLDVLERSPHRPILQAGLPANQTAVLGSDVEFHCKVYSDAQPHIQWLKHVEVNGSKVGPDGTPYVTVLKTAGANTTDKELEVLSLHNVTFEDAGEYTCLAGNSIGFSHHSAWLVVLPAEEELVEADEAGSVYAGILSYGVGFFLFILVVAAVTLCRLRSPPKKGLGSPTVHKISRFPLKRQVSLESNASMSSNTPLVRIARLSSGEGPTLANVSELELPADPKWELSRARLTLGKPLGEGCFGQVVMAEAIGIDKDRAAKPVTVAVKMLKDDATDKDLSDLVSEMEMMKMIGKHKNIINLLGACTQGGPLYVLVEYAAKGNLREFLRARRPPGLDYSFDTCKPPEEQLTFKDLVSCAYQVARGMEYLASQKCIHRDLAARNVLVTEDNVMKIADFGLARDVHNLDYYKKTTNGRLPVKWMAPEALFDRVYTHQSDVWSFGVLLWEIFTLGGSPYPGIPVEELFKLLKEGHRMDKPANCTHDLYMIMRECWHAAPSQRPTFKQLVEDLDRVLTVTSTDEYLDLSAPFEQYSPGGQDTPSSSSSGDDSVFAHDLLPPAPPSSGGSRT
# Procedure details: FGFR3 pFGFR cell assay (ELISA)
# Type: cell-based
# Test parameters: HEK-293 dox-inducible FGFR3, 1 hour compound, 100 ng/ml FGF-acidic
Rule for this label: class 1 means IC50 is less than 70 nM; class 0 means IC50 is at least 70 nM.

Ask: Does `C=CC(=O)N1CC(C(=O)N2CCC(n3cc(-c4cc(OC)c5c(C#N)cnn5c4)c(C)n3)CC2)C1` have IC50 strictly under 70 nM?
Result: class 0

Ask: Strictly below 70 nM in IC50? `C=CC(=O)Nc1ccc(C(=O)N2CC[C@H](n3cc(-c4cc(OC)c5c(C#N)cnn5c4)cn3)C2)cc1`
Result: class 0

Ask: Hello, I'm reviewing records and need to know if IC50 of `C=CC(=O)N1CC(C(=O)N2CCC(n3cc(-c4cc(OC)c5c(C#N)cnn5c4)cn3)CC2)C1` is below 70 nM. Could you check?
Result: class 1

Ask: Determine whether this compound shows IC50 lower than 70 nM (ties excluded): C=CC(=O)N1CC(C(=O)N2CCC(n3cc(-c4cc(OC)c5c(C#N)cnn5c4)cn3)CC2)C1(C)C (stereo not drawn)
Result: class 1

Ask: Find out if reported IC50 for `C=CS(=O)(=O)N[C@H]1CC[C@H](C(=O)N2CCC(n3cc(-c4cc(OC)c5c(C#N)cnn5c4)cn3)CC2)CC1` is less than 70 nM
Result: class 0

Ask: Could you please tell me whether IC50 recorded for C=CC(=O)N1CCC(F)(C(=O)N2CCC(n3cc(-c4cc(OC)c5c(C#N)cnn5c4)cn3)CC2)C1 (stereo not drawn) is less than 70 nM?
Result: class 1

Ask: Answer whether the compound `C=CC(=O)N(C)c1ccc(CN2CCC(n3cc(-c4cc(OC)c5c(C#N)cnn5c4)cn3)CC2)cc1` has IC50 strictly less than 70 nM
Result: class 1

Ask: API: query returns whether the compound falls strictly under 70 nM in IC50. Query: `C=CC(=O)N1CC(C(=O)N2CC[C@H](n3cc(-c4cc(OC)c5c(C#N)cnn5c4)cn3)C2)C1`
Result: class 0

Ask: Quick check: IC50 of `C=CC(=O)N1CC(C(=O)N2CCC(n3cc(-c4cc(OC(C)C)c5c(C#N)cnn5c4)cn3)CC2)C1` under 70 nM?
Result: class 1

Ask: Please determine if `C=CC(=O)N1C2COCC1CN(C(=O)N1CCC(n3cc(-c4cc(OC)c5c(C#N)cnn5c4)cn3)CC1)C2` is below 70 nM in terms of IC50.
Result: class 1

Ask: Here's an entry: `C=CC(=O)N1CC(CN2CC(n3cc(-c4cc(OC)c5c(C#N)cnn5c4)cn3)C2)C1` . Is its IC50 below 70 nM?
Result: class 0

Ask: Given `C=CC(=O)N1CC(OC)(C(=O)N2CCC(n3cc(-c4cc(OC)c5c(Cl)cnn5c4)cn3)CC2)C1` , is recorded IC50 strictly lower than 70 nM?
Result: class 1

Ask: Identify whether the compound `C=CC(=O)N1CC(C(=O)N2CC(n3cc(-c4cc(OC)c5c(C#N)cnn5c4)cn3)C2)C1` records IC50 below 70 nM.
Result: class 0

Ask: Here's an entry: `COc1cc(-c2cnn(C3CN(C(=O)C4CN(C(=O)/C=C/CN(C)C)C4)C3)c2)cn2ncc(C#N)c12` . Is its IC50 below 70 nM?
Result: class 0

Ask: IC50 strictly < 70 nM for this compound? `C=CC(=O)Nc1cccc(C(=O)N2CC[C@@H](n3cc(-c4cc(OC)c5c(C#N)cnn5c4)cn3)C2)c1`
Result: class 0
